system: T-47D breast; assay: NCI tumour cell line growth inhibition, 48 h
For each entry below, report its TGI value.

Input: Consider the compound O=C(CNc1nc(-c2ccccc2)cs1)Nc1ccccc1 and give its recorded TGI.
Output: 10.2 µM

Input: Consider the compound Cc1cc(=O)oc2cc(OCCOc3ccc(/C=C/C(=O)Nc4ccccc4N)cc3)ccc12 and give its recorded TGI.
Output: > 100 µM

Input: Consider the compound O=C(NO)c1ccc(CNc2nc(-c3ccccc3)c3ccccc3n2)cc1 and give its recorded TGI.
Output: 21.7 µM

Input: Consider the compound S=C(Nc1ccc(OCc2nc3ccc(Cl)cc3[nH]2)cc1)NC1CCCCC1 and give its recorded TGI.
Output: 26.2 µM

====

test system: OVCAR-4 ovarian; assay: NCI tumour cell line growth inhibition, 48 h
measure-name: TGI

Input: Consider the molecule Cc1cc(=O)oc2cc(OCCOc3ccc(/C=C/C(=O)Nc4ccccc4N)cc3)ccc12 and give its recorded TGI.
Output: > 100 µM

Input: Consider the molecule S=C(Nc1ccc(OCc2nc3ccc(Cl)cc3[nH]2)cc1)NC1CCCCC1 and give its recorded TGI.
Output: 25.1 µM

Input: Consider the molecule CCCCSc1nc(Nc2ccc(S(N)(=O)=O)cc2)c(C#N)c(-c2ccc(Cl)cc2)n1 and give its recorded TGI.
Output: 3.89 µM

Input: Consider the molecule O=C(CNc1nc(-c2ccccc2)cs1)Nc1ccccc1 and give its recorded TGI.
Output: 18.1 µM

====

For each entry below, report its log10 TGI value.
test system: MDA-MB-468 breast; experiment: NCI tumour cell line growth inhibition, 48 h
Values below are the log10 of the recorded TGI, with µM as the unit.

Input: Consider the molecule O=C(NO)c1ccc(CNc2nc(-c3ccccc3)c3ccccc3n2)cc1 and give its recorded log10 TGI.
Output: 0.73

Input: Consider the molecule CCCCSc1nc(Nc2ccc(S(N)(=O)=O)cc2)c(C#N)c(-c2ccc(Cl)cc2)n1 and give its recorded log10 TGI.
Output: 1.56

Input: Consider the molecule C=C1CCC2C3(C)COC(C)(C)OC3CCC2(C)C1C/C=C1/C(=O)OCC1OC(C)=O (stereo unspecified) and give its recorded log10 TGI.
Output: 0.49

Input: Consider the molecule Cc1cc(=O)oc2cc(OCCOc3ccc(/C=C/C(=O)Nc4ccccc4N)cc3)ccc12 and give its recorded log10 TGI.
Output: 1.98

Input: Consider the molecule CCCN1C(=O)NC(=O)C(CC)(N2C(=O)c3c(F)c(F)c(F)c(F)c3C2=O)C1=O (stereo unspecified) and give its recorded log10 TGI.
Output: 0.59

Input: Consider the molecule Nc1nc2ccc(-c3nc4ccc5[nH]ncc5c4c4c3CCC4)cc2s1 and give its recorded log10 TGI.
Output: 0.64

Input: Consider the molecule CC1=C([Se]CC(OC(=O)CC[Se]c2ccccc2)C(=O)NC(C)(C)C)C(=O)c2ccccc2C1=O (stereo unspecified) and give its recorded log10 TGI.
Output: 0.31

Input: Consider the molecule CC1=C2C(=C[C@@](C)(CO)[C@@H]2OC(=O)N(C)CCN(C)C(=O)OC(C)(C)C)C(=O)[C@](C)(O)C12CC2 and give its recorded log10 TGI.
Output: 0.58

Input: Consider the molecule O=S(=O)(Nc1ccc(Br)cc1)c1ccc(-c2cnc(C3CC3)o2)cc1 and give its recorded log10 TGI.
Output: 0.86

Input: Consider the molecule CCN1C(=O)N(CC)C2C1NN=c1s/c(=C\c3ccc(Cl)cc3Cl)c(=O)n12 (stereo unspecified) and give its recorded log10 TGI.
Output: 1.29

====

For each entry below, report its GI50 value.
test system: NCI-H23 lung; assay: NCI tumour cell line growth inhibition, 48 h

Input: Consider the compound O=C(NO)c1ccc(CNc2nc(-c3ccccc3)c3ccccc3n2)cc1 and give its recorded GI50.
Output: 2240 nM

Input: Consider the compound S=C(Nc1ccc(OCc2nc3ccc(Cl)cc3[nH]2)cc1)NC1CCCCC1 and give its recorded GI50.
Output: 8560 nM

Input: Consider the compound CCCCSc1nc(Nc2ccc(S(N)(=O)=O)cc2)c(C#N)c(-c2ccc(Cl)cc2)n1 and give its recorded GI50.
Output: 3430 nM

Input: Consider the compound CCc1ccccc1NC(=O)N/C(N)=N/c1nc2ccccc2s1 and give its recorded GI50.
Output: 45.4 nM

Input: Consider the compound O=C(CNc1nc(-c2ccccc2)cs1)Nc1ccccc1 and give its recorded GI50.
Output: 1480 nM

====

system: MDA-MB-231 breast; assay: NCI tumour cell line growth inhibition, 48 h
measure-name: TGI (µM)
Respond with the bare value in µM.

Input: Consider the molecule CCc1ccccc1NC(=O)N/C(N)=N/c1nc2ccccc2s1 and give its recorded TGI.
Output: 0.598

Input: Consider the molecule O=C(NO)c1ccc(CNc2nc(-c3ccccc3)c3ccccc3n2)cc1 and give its recorded TGI.
Output: 8.22

Input: Consider the molecule O=C(CNc1nc(-c2ccccc2)cs1)Nc1ccccc1 and give its recorded TGI.
Output: 7.28

Input: Consider the molecule S=C(Nc1ccc(OCc2nc3ccc(Cl)cc3[nH]2)cc1)NC1CCCCC1 and give its recorded TGI.
Output: 20.4

====

tested on: PC-3 prostate; assay: NCI tumour cell line growth inhibition, 48 h; in the data active = GI50 below about 0.43 µM; inactive = the rest
Respond with a class label; see active, inactive

Input: Could you kindly confirm the outcome this assay logged for CCc1ccccc1NC(=O)N/C(N)=N/c1nc2ccccc2s1 ?
Output: active

Input: Could you kindly confirm the outcome this assay logged for Cc1cc(=O)oc2cc(OCCOc3ccc(/C=C/C(=O)Nc4ccccc4N)cc3)ccc12 ?
Output: inactive

Input: Could you kindly confirm the outcome this assay logged for O=C(NO)c1ccc(CNc2nc(-c3ccccc3)c3ccccc3n2)cc1 ?
Output: inactive

Input: Could you kindly confirm the outcome this assay logged for S=C(Nc1ccc(OCc2nc3ccc(Cl)cc3[nH]2)cc1)NC1CCCCC1 ?
Output: inactive

====

tested on: OVCAR-5 ovarian; assay: NCI tumour cell line growth inhibition, 48 h; in the data active means GI50 below about 0.43 µM; inactive means the rest
Respond with a class label; see 1 = active, 0 = inactive

Input: Could you kindly confirm the outcome this assay logged for CCCCSc1nc(Nc2ccc(S(N)(=O)=O)cc2)c(C#N)c(-c2ccc(Cl)cc2)n1 ?
Output: 0

Input: Could you kindly confirm the outcome this assay logged for O=C(CNc1nc(-c2ccccc2)cs1)Nc1ccccc1 ?
Output: 0

Input: Could you kindly confirm the outcome this assay logged for O=C(NO)c1ccc(CNc2nc(-c3ccccc3)c3ccccc3n2)cc1 ?
Output: 0

Input: Could you kindly confirm the outcome this assay logged for Cc1cc(=O)oc2cc(OCCOc3ccc(/C=C/C(=O)Nc4ccccc4N)cc3)ccc12 ?
Output: 0

Input: Could you kindly confirm the outcome this assay logged for CCc1ccccc1NC(=O)N/C(N)=N/c1nc2ccccc2s1 ?
Output: 1

====

tested on: EKVX NSCLC; assay: NCI tumour cell line growth inhibition, 48 h; in the data active = GI50 below about 0.43 µM; inactive = the rest
Respond with a class label; see True = active, False = inactive

Input: Could you kindly confirm the outcome this assay logged for Cc1cc(=O)oc2cc(OCCOc3ccc(/C=C/C(=O)Nc4ccccc4N)cc3)ccc12 ?
Output: False

Input: Could you kindly confirm the outcome this assay logged for O=C(CNc1nc(-c2ccccc2)cs1)Nc1ccccc1 ?
Output: False

Input: Could you kindly confirm the outcome this assay logged for CCCCSc1nc(Nc2ccc(S(N)(=O)=O)cc2)c(C#N)c(-c2ccc(Cl)cc2)n1 ?
Output: False

Input: Could you kindly confirm the outcome this assay logged for CCc1ccccc1NC(=O)N/C(N)=N/c1nc2ccccc2s1 ?
Output: True

====

system: NCI-H460 lung; test: NCI tumour cell line growth inhibition, 48 h
For each entry below, report its TGI value.
In your response, the unit should come after the numeric value.

Input: Consider the compound CCc1ccccc1NC(=O)N/C(N)=N/c1nc2ccccc2s1 and give its recorded TGI.
Output: 3.82 µM

Input: Consider the compound O=C(CNc1nc(-c2ccccc2)cs1)Nc1ccccc1 and give its recorded TGI.
Output: 11.8 µM

Input: Consider the compound S=C(Nc1ccc(OCc2nc3ccc(Cl)cc3[nH]2)cc1)NC1CCCCC1 and give its recorded TGI.
Output: 14.2 µM

Input: Consider the compound CCCCSc1nc(Nc2ccc(S(N)(=O)=O)cc2)c(C#N)c(-c2ccc(Cl)cc2)n1 and give its recorded TGI.
Output: 4.66 µM

====

tested on: SW-620 colon; assay: NCI tumour cell line growth inhibition, 48 h
For each entry below, report its TGI value.
Respond with the bare value in µM.

Input: Consider the compound S=C(Nc1ccc(OCc2nc3ccc(Cl)cc3[nH]2)cc1)NC1CCCCC1 and give its recorded TGI.
Output: 24.2

Input: Consider the compound CCCCSc1nc(Nc2ccc(S(N)(=O)=O)cc2)c(C#N)c(-c2ccc(Cl)cc2)n1 and give its recorded TGI.
Output: 12.4

Input: Consider the compound O=C(CNc1nc(-c2ccccc2)cs1)Nc1ccccc1 and give its recorded TGI.
Output: 6.04

====

test system: KM12 colon; assay: NCI tumour cell line growth inhibition, 48 h
For each entry below, report its TGI value.
Respond with the bare value in µM.

Input: Consider the molecule CCc1ccccc1NC(=O)N/C(N)=N/c1nc2ccccc2s1 and give its recorded TGI.
Output: 11.1

Input: Consider the molecule S=C(Nc1ccc(OCc2nc3ccc(Cl)cc3[nH]2)cc1)NC1CCCCC1 and give its recorded TGI.
Output: 17.5

Input: Consider the molecule O=C(CNc1nc(-c2ccccc2)cs1)Nc1ccccc1 and give its recorded TGI.
Output: 14.9

Values from PubChem BioAssay (NCI)
